Assay Protocol: in vitro
Stated Conditions: African green monkey, VeroE6 + CP (CC50), Vero E6-eGFP cells with CP-100356, absence of virus, MTS; class symbols
Value Kind: CC50

Known results for compounds:
O=C1NCC[C@H]1C[C@H](NC(=O)[C@@H]1[C@H]2CCC[C@H]2CN1C(=O)c1cc2c(Cl)cc(Cl)cc2[nH]1)C(=O)CO | > 10 µM
O=C(NCCOC1CCCC1)C(=O)[C@H](C[C@@H]1CCNC1=O)NC(=O)[C@@H]1[C@H]2CCC[C@H]2CN1C(=O)c1cc2c(Cl)cc(Cl)cc2[nH]1 | > 10 µM
O=C1NCC[C@H]1C[C@H](NC(=O)[C@@H]1[C@H]2CCC[C@H]2CN1C(=O)c1cc2c(Cl)cccc2[nH]1)C(=O)CO | > 10 µM
O=C1NCC[C@H]1C[C@H](NC(=O)[C@@H]1[C@H]2CCC[C@H]2CN1C(=O)c1cc2c(Cl)cc(-c3ccccc3)cc2[nH]1)C(=O)CO | > 10 µM

// CC50 lookup, key: COc1cccc2[nH]c(C(=O)N3C[C@H]4[C@@H]([C@H]3C(=O)N[C@@H](C[C@@H]3CCCNC3=O)C(=O)COCc3ccccc3)C4(C)C)cc12 [Compound 49A]
> 10 µM

// CC50 lookup, key: `O=C1NCC[C@H]1C[C@H](NC(=O)[C@@H]1[C@H]2CCC[C@H]2CN1C(=O)c1cc2c(Cl)cc(OCc3ccccc3)cc2[nH]1)C(=O)CO`
> 10 µM

###

Recorded measurements of IC50, one per entry
Tgt: 3CLpro (Severe acute respiratory syndrome coronavirus 2)
Assay Protocol: SARS-CoV-2 3CLpro protease assay (duplex, SAMDI-MS)
Type: biochemical
Parameters: For the duplex assay, 3CLpro and HRV3C was added
Stated Conditions: SARS-Cov-2 IC50, 3CLpro, 30 mins preincubation, class symbols

Known results for compounds:
O=C1NCC[C@H]1C[C@H](NC(=O)[C@@H]1[C@H]2CCC[C@H]2CN1C(=O)c1cc2c(Cl)ccc(Oc3ccccc3)c2[nH]1)C(=O)CO | 20 to 200 nM
COCCNC(=O)C(=O)[C@H](C[C@@H]1CCNC1=O)NC(=O)[C@@H]1[C@H]2CCC[C@H]2CN1C(=O)c1cc2c(OC)cccc2[nH]1 | 20 to 200 nM
COc1ccc(Cl)c2[nH]c(C(=O)N3C[C@@H]4CCC[C@@H]4[C@H]3C(=O)N[C@@H](C[C@@H]3CCNC3=O)C(=O)CO)cc12 | < 20 nM

# input for lookup
// IC50 lookup, key: `CS(=O)(=O)c1cccc2[nH]c(C(=O)N3C[C@@H]4CCC[C@@H]4[C@H]3C(=O)N[C@@H](C[C@@H]3CCNC3=O)C(=O)CO)cc12`
200 to 2000 nM

###

Tgt: UniProt:P03303
Assay Protocol: HRV3C protease assay (duplex, SAMDI-MS)
Format: biochemical, HRV
Stated Conditions: HRV3C, 30 mins preincubation, class symbols; read-out: HRV IC50
Value Kind: IC50

O=C[C@H](C[C@@H]1CCCNC1=O)NC(=O)[C@@H]1[C@H]2CCC[C@H]2CN1C(=O)c1cc2ccccc2[nH]1 | 20 to 200 nM
O=C1NCC[C@H]1C[C@H](NC(=O)[C@@H]1[C@H]2CCC[C@H]2CN1C(=O)c1cc2c(OC(F)F)cccc2[nH]1)C(=O)CO | 2000 to 20000 nM
O=C(NC1CC1)C(=O)[C@H](C[C@@H]1CCNC1=O)NC(=O)[C@@H]1CC2(CCN1C(=O)c1cc3c(Cl)cc(Cl)cc3[nH]1)CC2 | 2000 to 20000 nM

// IC50 lookup, key: `COc1cccc2[nH]c(C(=O)N3C[C@@H]4CCC[C@@H]4[C@H]3C(=O)N[C@@H](C[C@@H]3CCNC3=O)C(=O)C(=O)NCCOc3ccccc3)cc12`
2000 to 20000 nM

// IC50 lookup, key: `O=C(NC1CC1)C(=O)[C@H](C[C@@H]1CCNC1=O)NC(=O)[C@@H]1CC2(CCN1C(=O)c1cc3c(C4CC4)cccc3[nH]1)CC2`
200 to 2000 nM

// IC50 lookup, key: `CSc1cccc2[nH]c(C(=O)N3C[C@@H]4CCC[C@@H]4[C@H]3C(=O)N[C@@H](C[C@@H]3CCNC3=O)C(=O)CO)cc12`
2000 to 20000 nM

// IC50 lookup, key: `COc1cccc2[nH]c(C(=O)N3CC4(CC4)C[C@H]3C(=O)N[C@@H](C[C@@H]3CCNC3=O)C(=O)CO)cc12`
20000 to 100000 nM

// IC50 lookup, key: `O=C(NCCOCC1CCCC1)C(=O)[C@H](C[C@@H]1CCNC1=O)NC(=O)[C@@H]1[C@H]2CCC[C@H]2CN1C(=O)c1cc2c(Cl)cc(Cl)cc2[nH]1`
2000 to 20000 nM

// IC50 lookup, key: `CC1(C)[C@@H]2[C@@H](C(=O)N[C@@H](C[C@@H]3CCNC3=O)C(=O)CO)N(C(=O)c3cc4c(Cl)cc(Cl)cc4[nH]3)C[C@@H]21`
2000 to 20000 nM

// IC50 lookup, key: `COc1ccc2[nH]c(C(=O)N3C[C@@H]4CCC[C@@H]4[C@H]3C(=O)N[C@@H](C[C@@H]3CCNC3=O)C(=O)CO)cc2c1OC`
2000 to 20000 nM

// IC50 lookup, key: `COc1cccc2[nH]c(C(=O)N3CCC4(CC4)C[C@H]3C(=O)N[C@@H](C[C@@H]3CCNC3=O)C(=O)C(=O)NC3CC3)cc12`
200 to 2000 nM

// IC50 lookup, key: `O=C1NCC[C@H]1C[C@H](NC(=O)[C@@H]1[C@H]2CCC[C@H]2CN1C(=O)c1cc2c(Cl)cc(F)cc2[nH]1)C(=O)CO`
2000 to 20000 nM

###

Recorded measurements of CC50, one per entry
Assay Protocol: in vitro
Stated Conditions: human

Known results for compounds:
O=C(NC1CC1)C(=O)[C@H](C[C@@H]1CCNC1=O)NC(=O)[C@@H]1CC2(CCN1C(=O)c1cc3c(C4CC4)cccc3[nH]1)CC2 [Compound 180] | > 10 µM
COc1cccc2[nH]c(C(=O)N3C[C@H](C(F)(F)F)C[C@H]3C(=O)N[C@@H](C[C@@H]3CCCNC3=O)C(=O)COCc3ccccc3)cc12 [Compound 45A] | > 10 µM
COc1cccc2[nH]c(C(=O)N3C[C@@H]4CCC[C@@H]4[C@H]3C(=O)N[C@@H](C[C@@H]3CCNC3=O)C(=O)c3nc4ccccc4s3)cc12 [Compound 50] | > 10 µM

// CC50 lookup, key: COc1cccc2[nH]c(C(=O)N3Cc4ccccc4C[C@H]3C(=O)N[C@@H](C[C@@H]3CCNC3=O)C(=O)C(=O)NC3CC3)cc12 [Compound 97]
> 100 µM

// CC50 lookup, key: COc1ccc2[nH]c(C(=O)N3CCC4(CC4)C[C@H]3C(=O)N[C@@H](C[C@@H]3CCNC3=O)C(=O)C(=O)NC3CC3)cc2c1 [Compound 171]
> 10 µM

// CC50 lookup, key: O=C(NCc1ccccc1)C(=O)[C@H](Cc1cc[nH]n1)NC(=O)[C@@H]1CC2(CC2)CN1C(=O)c1cc2ccccc2[nH]1 [Compound 96]
> 10 µM

// CC50 lookup, key: O=C(NC1CC1)C(=O)[C@H](C[C@@H]1CCNC1=O)NC(=O)[C@@H]1CC2(CCN1C(=O)c1cc3ccccc3[nH]1)CC2 [Compound 140]
> 10 µM

// CC50 lookup, key: O=C(NC1CC1)C(=O)[C@H](C[C@@H]1CCNC1=O)NC(=O)[C@@H]1CC2(CCN1C(=O)c1cc3ccccc3s1)CC2 [Compound 165]
> 10 µM

// CC50 lookup, key: C[C@@H]1C[C@@H](C(=O)N[C@@H](C[C@@H]2CCNC2=O)C(=O)C(=O)NCc2ccccc2)N(C(=O)c2cc3ccccc3[nH]2)C1 [Compound 25]
> 100 µM

// CC50 lookup, key: O=C1NCC[C@H]1C[C@H](NC(=O)[C@@H]1[C@H]2CCC[C@H]2CN1C(=O)c1cc2c(Cl)c(F)cc(F)c2[nH]1)C(=O)CO [Compound 143]
> 10 µM

// CC50 lookup, key: CC(=O)c1c[nH]c(C(=O)N2C[C@@H]3CCC[C@@H]3[C@H]2C(=O)N[C@@H](C[C@@H]2CCNC2=O)C(=O)CO)c1 [Compound 86]
> 50 µM

// CC50 lookup, key: COc1cccc2oc(C(=O)N3C[C@@H]4CCC[C@@H]4[C@H]3C(=O)N[C@@H](C[C@@H]3CCNC3=O)C(=O)CO)cc12 [Compound 94]
> 100 µM

###

Tgt: UniProt P03303
Assay Protocol: HRV3C protease assay (duplex, SAMDI-MS)
Assay type: biochemical, HRV
Stated Conditions: HRV3C, 30 mins preincubation, class symbols; read-out: HRV IC50
Value Kind: IC50

Known results for compounds:
O=C(NCc1ccccc1)C(=O)[C@H](C[C@@H]1CCNC1=O)NC(=O)[C@@H]1C[C@]2(CN1C(=O)c1cc3ccccc3[nH]1)CC2(F)F [Compound 22] | 2000 to 20000 nM
CC1(C)CCN(C(=O)c2cc3ccccc3[nH]2)[C@H](C(=O)NC(C[C@@H]2CCNC2=O)C(=O)C(=O)NCc2ccccc2)C1 (some centres unmarked) [Compound 26] | 2000 to 20000 nM
COc1cccc2[nH]c(C(=O)N3C[C@]4(C[C@H]3C(=O)N[C@@H](C[C@@H]3CCCNC3=O)C(=O)C(=O)NC(C)C)CC4(F)F)cc12 [Compound 34] | 200 to 2000 nM
O=C1NCC[C@H]1C[C@H](NC(=O)[C@@H]1[C@H]2CCC[C@H]2CN1C(=O)c1cc2ncccc2[nH]1)C(=O)CO [Compound 78] | 2000 to 20000 nM

# input for lookup
// IC50 lookup, key: COc1cccc2[nH]c(C(=O)N3C[C@H](c4ccccc4)C[C@H]3C(=O)N[C@@H](C[C@@H]3CCNC3=O)C(=O)CO)cc12 [Compound 32]
200 to 2000 nM
